# Assay Target: T1, Suv3 (human, UniProt Q8IYB8 48-786)
# T1 sequence: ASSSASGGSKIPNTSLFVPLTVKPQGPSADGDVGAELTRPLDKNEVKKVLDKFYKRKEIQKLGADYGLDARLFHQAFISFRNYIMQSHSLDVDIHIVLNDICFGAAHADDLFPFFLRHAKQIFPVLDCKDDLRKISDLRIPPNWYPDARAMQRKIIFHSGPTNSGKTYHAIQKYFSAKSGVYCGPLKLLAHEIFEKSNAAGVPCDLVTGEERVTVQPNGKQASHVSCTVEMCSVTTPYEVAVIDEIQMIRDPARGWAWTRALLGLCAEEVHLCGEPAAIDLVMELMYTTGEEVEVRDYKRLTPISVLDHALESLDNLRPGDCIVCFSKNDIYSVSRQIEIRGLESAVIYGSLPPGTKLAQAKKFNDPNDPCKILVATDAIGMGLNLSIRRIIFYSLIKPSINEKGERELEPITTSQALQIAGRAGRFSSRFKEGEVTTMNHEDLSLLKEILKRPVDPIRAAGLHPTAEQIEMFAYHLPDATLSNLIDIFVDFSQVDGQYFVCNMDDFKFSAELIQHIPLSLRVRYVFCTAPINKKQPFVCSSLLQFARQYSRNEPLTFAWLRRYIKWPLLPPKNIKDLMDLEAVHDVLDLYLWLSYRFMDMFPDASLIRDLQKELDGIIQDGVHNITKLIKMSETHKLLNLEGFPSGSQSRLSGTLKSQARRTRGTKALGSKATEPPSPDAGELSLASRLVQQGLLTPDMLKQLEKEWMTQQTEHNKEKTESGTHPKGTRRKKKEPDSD
# Protocol Description: fluorescence polarization
Observable: pKd
Units for pKd: none; it is -log10 of a concentration expressed in mol/L.

Consider dsRNA 10-nt 3' overhang (dsRNA) RNA 1: GGUGUGGUGGCAUACGUGCAGACGC RNA 2: GCGUCUGCACGUAUGCCACCACACCAGGAGAGGAG . Its measured pKd is 7.21
